# System Tested: Acetylcholinesterase (Homo sapiens, UniProt P22303); also: assay procedure not described here
# Sequence (P22303 whole entry): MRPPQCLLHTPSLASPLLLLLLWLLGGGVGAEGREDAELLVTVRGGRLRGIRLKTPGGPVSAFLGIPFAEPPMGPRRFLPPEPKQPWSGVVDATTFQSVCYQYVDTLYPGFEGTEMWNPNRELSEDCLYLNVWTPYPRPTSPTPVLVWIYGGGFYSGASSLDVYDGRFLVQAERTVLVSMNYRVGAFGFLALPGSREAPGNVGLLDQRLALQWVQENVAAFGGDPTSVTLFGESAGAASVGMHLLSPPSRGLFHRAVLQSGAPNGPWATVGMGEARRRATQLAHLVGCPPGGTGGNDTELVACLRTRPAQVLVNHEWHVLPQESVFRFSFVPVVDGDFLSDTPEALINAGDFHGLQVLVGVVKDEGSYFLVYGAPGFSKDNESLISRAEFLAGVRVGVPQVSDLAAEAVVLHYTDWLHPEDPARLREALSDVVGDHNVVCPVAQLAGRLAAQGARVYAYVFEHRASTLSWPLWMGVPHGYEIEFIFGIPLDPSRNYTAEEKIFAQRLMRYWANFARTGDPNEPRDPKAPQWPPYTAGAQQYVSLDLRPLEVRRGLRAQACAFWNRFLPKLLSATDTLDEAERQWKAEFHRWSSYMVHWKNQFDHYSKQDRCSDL
# Assay type: functional
Endpoint: AC50

{"Compound": "Nc1nc2nc[nH]c2c(=S)[nH]1", "AC50": "> 30 µM"}
{"Compound": "CCN(CC)CCc1nc(-c2ccccc2)no1", "AC50": "> 30 µM"}
{"Compound": "C=CCCCCCCCCC(=O)O", "AC50": "> 30 µM"}

Q: Request: AC50, test system Acetylcholinesterase (Homo sapiens, UniProt P22303), entry O=c1[nH]c(=O)n(C2CCCO2)cc1F (stereo unspecified); also: assay procedure not described here
Ans: > 30 µM

Q: Another compound: CCC1=C(C)CN(C(=O)NCCc2ccc(S(=O)(=O)NC(=O)N[C@H]3CC[C@H](C)CC3)cc2)C1=O [GLIMEPIRIDE]
Ans: > 30 µM

Q: Another compound: CCc1oc2ccccc2c1C(=O)c1cc(I)c(O)c(I)c1
Ans: > 30 µM

Q: Another compound: Oc1c(Cl)cc(Cl)c2cccnc12
Ans: > 30 µM

---

This document collects AC50 values reported for Growth hormone secretagogue receptor type 1 (Homo sapiens).

Some solved cases for reference:
{"Compound": "C[C@@H](O)[C@H]1C(=O)N2C(C(=O)O)=C(S[C@@H]3CN[C@H](C(=O)N(C)C)C3)[C@H](C)[C@H]12", "System Tested": "Growth hormone secretagogue receptor type 1 (Homo sapiens)", "Endpoint": "AC50", "Result": "> 300 µM"}
{"Compound": "CCCN1C[C@H](CSC)C[C@@H]2c3cccc4[nH]cc(c34)C[C@H]21 [PERGOLIDE]", "System Tested": "Growth hormone secretagogue receptor type 1 (Homo sapiens)", "Endpoint": "AC50", "Result": "> 30 µM"}
{"Compound": "O=C(O)[C@H](CC(=O)N1C[C@H]2CCCC[C@H]2C1)Cc1ccccc1 [MITIGLINIDE]", "System Tested": "Growth hormone secretagogue receptor type 1 (Homo sapiens)", "Endpoint": "AC50", "Result": "> 10 µM"}

// next item, AC50 requested
Q: Query (compound): C[C@]12CC[C@H]3[C@@H](CCC4=CC(=O)CC[C@@]43C)[C@@H]1CC[C@@H]2O ; field requested: AC50
Ans: > 10 µM

---

This document collects AC50 values reported for D(3) dopamine receptor (Homo sapiens).

Some solved cases for reference:
{"Molecule": "CCCCCNC(=N)N/N=C/c1c[nH]c2ccc(OC)cc12", "AC50": "5.62 µM"}
{"Molecule": "CC(C)(C)N1CCC(c2ccccc2)(c2ccccc2)CC1", "AC50": "> 30 µM"}
{"Molecule": "COc1ccccc1N1CCN(CC(O)COc2cccc3ccccc23)CC1 (stereo unspecified)", "AC50": "0.04 µM"}
{"Molecule": "Cc1cccc(Nc2ccccc2C(=O)O)c1C", "AC50": "> 30 µM"}
{"Molecule": "O=C(Oc1ccc2c(c1)CCCN2C(=O)C(Cl)Cl)c1ccco1 [QUINFAMIDE]", "AC50": "> 30 µM"}

// next item, AC50 requested
Q: Request: AC50, test system D(3) dopamine receptor (Homo sapiens), entry Nc1ccc(S(=O)(=O)c2cnc(N)s2)cc1
Ans: > 30 µM

---

# System Tested: UniProtKB P35462
Endpoint: AC50

Some solved cases for reference:
{"Compound": "COc1ccc(CCN(C)CCCC(C#N)(c2cc(OC)c(OC)c(OC)c2)C(C)C)cc1OC (stereo not given)", "System Tested": "UniProtKB P35462", "AC50": "3.3 µM"}
{"Compound": "C[C@](N)(Cc1ccc(O)c(O)c1)C(=O)O", "System Tested": "UniProtKB P35462", "AC50": "> 30 µM"}

// next item, AC50 requested
Q: Query (compound): CC=CC(=O)N(CC)c1ccccc1C ; field requested: AC50
Ans: > 30 µM

---

This document collects AC50 values reported for Motilin receptor (Homo sapiens, UniProt O43193).

{"Compound": "CC=CC(=O)N(CC)c1ccccc1C", "System Tested": "Motilin receptor (Homo sapiens, UniProt O43193)", "AC50": "> 10 µM"}

Q: Query (compound): O=C(NCCNCC(O)COc1ccc(O)cc1)N1CCOCC1 (stereo not given) ; field requested: AC50
Ans: > 30 µM

Q: Another compound: CC(C)Cn1cnc2c(N)nc3ccccc3c21
Ans: > 10 µM

Q: Another compound: CC[C@@H]1C(=O)OC[C@@H]1Cc1cncn1C
Ans: > 10 µM

Q: Another compound: Cc1cn([C@H]2C[C@H](N=[N+]=[N-])[C@@H](CO)O2)c(=O)[nH]c1=O
Ans: > 10 µM

---

# System Tested: Alpha-2C adrenergic receptor (Homo sapiens, UniProt P18825); also: assay procedure not described here
# Sequence (P18825 whole entry): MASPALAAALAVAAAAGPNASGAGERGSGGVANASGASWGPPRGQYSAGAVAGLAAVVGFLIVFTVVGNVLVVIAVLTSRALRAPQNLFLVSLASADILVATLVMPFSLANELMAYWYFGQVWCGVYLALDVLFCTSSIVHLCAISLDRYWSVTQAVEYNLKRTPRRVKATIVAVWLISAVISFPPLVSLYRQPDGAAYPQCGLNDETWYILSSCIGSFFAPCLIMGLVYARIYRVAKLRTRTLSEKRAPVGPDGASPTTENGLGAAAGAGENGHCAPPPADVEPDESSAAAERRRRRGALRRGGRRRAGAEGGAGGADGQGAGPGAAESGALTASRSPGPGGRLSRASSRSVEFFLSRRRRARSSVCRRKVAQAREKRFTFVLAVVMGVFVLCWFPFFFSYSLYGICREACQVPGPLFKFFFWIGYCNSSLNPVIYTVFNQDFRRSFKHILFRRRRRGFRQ
# Assay type: functional
Endpoint: AC50

{"Compound": "Cc1cn([C@H]2C=C[C@@H](CO)O2)c(=O)[nH]c1=O [STAVUDINE]", "System Tested": "Alpha-2C adrenergic receptor (Homo sapiens, UniProt P18825)", "AC50": "> 10 µM"}
{"Compound": "CC1(C)CCC(CN2CCN(c3ccc(C(=O)NS(=O)(=O)c4ccc(NCC5CCOCC5)c([N+](=O)[O-])c4)c(Oc4cnc5[nH]ccc5c4)c3)CC2)=C(c2ccc(Cl)cc2)C1 [VENETOCLAX]", "System Tested": "Alpha-2C adrenergic receptor (Homo sapiens, UniProt P18825)", "AC50": "17 µM"}

Q: Request: AC50, test system Alpha-2C adrenergic receptor (Homo sapiens, UniProt P18825), entry CC(=O)NCCCS(=O)(=O)O [ACAMPROSATE]; also: assay procedure not described here
Ans: > 30 µM

---

This document collects AC50 values reported for UniProt P20309.
Sequence (P20309 whole entry): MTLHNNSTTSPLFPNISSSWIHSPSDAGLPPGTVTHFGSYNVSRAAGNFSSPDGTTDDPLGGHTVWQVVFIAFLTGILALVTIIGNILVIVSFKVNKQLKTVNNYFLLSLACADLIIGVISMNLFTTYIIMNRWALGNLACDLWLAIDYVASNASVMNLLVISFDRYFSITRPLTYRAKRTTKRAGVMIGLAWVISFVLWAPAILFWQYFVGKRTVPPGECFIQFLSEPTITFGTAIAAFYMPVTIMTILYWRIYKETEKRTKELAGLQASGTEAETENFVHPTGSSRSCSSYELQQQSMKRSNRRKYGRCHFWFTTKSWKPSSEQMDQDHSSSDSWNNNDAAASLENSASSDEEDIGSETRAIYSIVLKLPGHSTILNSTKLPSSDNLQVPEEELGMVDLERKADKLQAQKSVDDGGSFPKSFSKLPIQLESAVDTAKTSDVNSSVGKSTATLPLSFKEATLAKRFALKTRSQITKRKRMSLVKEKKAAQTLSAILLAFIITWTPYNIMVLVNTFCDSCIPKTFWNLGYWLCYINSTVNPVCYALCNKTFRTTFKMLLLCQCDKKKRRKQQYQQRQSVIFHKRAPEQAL

{"Compound": "CCOc1ccc(Cc2cc([C@@H]3O[C@H](CO)[C@@H](O)[C@H](O)[C@H]3O)ccc2Cl)cc1", "AC50": "> 30 µM"}
{"Compound": "CN(C)CCC=C1c2ccccc2C=Cc2ccccc21", "AC50": "0.35 µM"}
{"Compound": "Nc1nc(NC2CC2)c2ncn([C@H]3C=C[C@@H](CO)C3)c2n1", "AC50": "> 30 µM"}
{"Compound": "O=C(O)C1=C(CSc2nnnn2CS(=O)(=O)O)CS[C@@H]2[C@H](NC(=O)[C@H](O)c3ccccc3)C(=O)N12", "AC50": "> 30 µM"}
{"Compound": "CC[C@@H](C(N)=O)N1CCCC1=O", "AC50": "> 30 µM"}
{"Compound": "O=C(NCCNCC(O)COc1ccc(O)cc1)N1CCOCC1 (centres undefined)", "AC50": "> 30 µM"}
{"Compound": "COc1ccccc1OCCNCC(O)c1ccc(C)c(S(N)(=O)=O)c1 (centres undefined)", "AC50": "> 30 µM"}
{"Compound": "C[C@H]1COc2c(C3(N)CC3)c(F)cc3c(=O)c(C(=O)O)cn1c23", "AC50": "> 30 µM"}
{"Compound": "O=[N+]([O-])O[C@@H]1CO[C@H]2[C@@H]1OC[C@@H]2O [ISOSORBIDE MONONITRATE]", "AC50": "> 10 µM"}
{"Compound": "CN(C)CCc1c[nH]c2ccc(C[C@H]3COC(=O)N3)cc12", "AC50": "> 30 µM"}

Q: Query (compound): CN1C(=O)C(O)N=C(c2ccccc2)c2cc(Cl)ccc21 (centres undefined) ; field requested: AC50
Ans: > 10 µM

Q: Another compound: COc1ccc(CC(C)(C)NC[C@H](O)c2cc(O)cc3c2OCC(=O)N3)cc1
Ans: > 30 µM

Q: Another compound: C[C@H](N)[C@H](O)c1cccc(O)c1
Ans: > 30 µM

Q: Another compound: O=[N+]([O-])c1cn2c(n1)OC[C@@H](OCc1ccc(OC(F)(F)F)cc1)C2
Ans: > 10 µM

Q: Another compound: CCOc1ccccc1OCC1CNCCO1 (centres undefined)
Ans: > 10 µM

Q: Another compound: COc1ccccc1N1CCN(CCCNc2cc(=O)n(C)c(=O)n2C)CC1
Ans: > 30 µM

Q: Another compound: COc1ccc2c3c1O[C@H]1C(=O)CC[C@@]4(O)[C@@H](C2)N(C)CC[C@]314
Ans: > 30 µM

Q: Another compound: O=C1C(O)=C([C@H]2CC[C@H](c3ccc(Cl)cc3)CC2)C(=O)c2ccccc21
Ans: > 30 µM

Q: Another compound: NCC(=O)CCC(=O)O
Ans: > 30 µM

---

# System Tested: 5-hydroxytryptamine receptor 2C (Homo sapiens, UniProt P28335); also: assay procedure not described here
# Sequence (P28335 whole entry): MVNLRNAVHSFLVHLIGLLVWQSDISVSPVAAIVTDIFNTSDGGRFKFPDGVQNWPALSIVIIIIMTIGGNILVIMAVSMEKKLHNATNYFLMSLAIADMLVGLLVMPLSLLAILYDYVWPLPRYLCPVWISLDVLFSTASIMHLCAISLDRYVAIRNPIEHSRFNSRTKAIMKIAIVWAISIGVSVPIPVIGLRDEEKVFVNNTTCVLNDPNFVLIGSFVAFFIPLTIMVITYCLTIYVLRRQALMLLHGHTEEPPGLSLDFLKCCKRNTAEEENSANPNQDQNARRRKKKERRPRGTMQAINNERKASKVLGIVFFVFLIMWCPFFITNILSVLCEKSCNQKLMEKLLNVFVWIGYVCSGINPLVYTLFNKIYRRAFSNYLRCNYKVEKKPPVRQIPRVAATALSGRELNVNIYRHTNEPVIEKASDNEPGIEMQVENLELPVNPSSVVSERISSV
Endpoint: AC50

Some solved cases for reference:
{"Compound": "CCOc1ccc(Cc2cc([C@@H]3O[C@H](CO)[C@@H](O)[C@H](O)[C@H]3O)ccc2Cl)cc1 [DAPAGLIFLOZIN]", "AC50": "> 30 µM"}
{"Compound": "CCOC(=O)OC(C)OC1=C(C(=O)Nc2ccccn2)N(C)S(=O)(=O)c2ccccc21 (stereo not given) [AMPIROXICAM]", "AC50": "> 30 µM"}
{"Compound": "COc1ccccc1OCCNCC(O)c1ccc(C)c(S(N)(=O)=O)c1 (stereo not given) [AMOSULALOL]", "AC50": "> 30 µM"}

Q: Query (compound): CCCSc1ccc2nc(NC(=O)OC)[nH]c2c1 [ALBENDAZOLE] ; field requested: AC50
Ans: > 30 µM

Q: Another compound: c1ccc([C@H]2CN3CCSC3=N2)cc1 [LEVAMISOLE]
Ans: > 30 µM

Q: Another compound: CC(CC(c1ccccc1)c1ccccc1)NC(C)(C)C (stereo not given) [TERODILINE]
Ans: > 30 µM

Q: Another compound: Cc1cn([C@H]2C=C[C@@H](CO)O2)c(=O)[nH]c1=O [STAVUDINE]
Ans: > 30 µM

Q: Another compound: C/C(O)=C(\C#N)C(=O)Nc1ccc(C(F)(F)F)cc1 [TERIFLUNOMIDE]
Ans: > 30 µM

Q: Another compound: CC(C)Cn1cnc2c(N)nc3ccccc3c21 [IMIQUIMOD]
Ans: > 30 µM

Q: Another compound: CCOC(=O)[N-]c1cn(N2CCOCC2)n[o+]1 [MOLSIDOMINE]
Ans: > 30 µM

Q: Another compound: Cc1ccc(-c2cc(C(F)(F)F)nn2-c2ccc(S(N)(=O)=O)cc2)cc1 [CELECOXIB]
Ans: > 30 µM

Q: Another compound: Cc1nnc2n1-c1ccc(Cl)cc1C(c1ccccc1Cl)=NC2 [TRIAZOLAM]
Ans: > 30 µM

Q: Another compound: O=C(O)[C@H](CC(=O)N1C[C@H]2CCCC[C@H]2C1)Cc1ccccc1 [MITIGLINIDE]
Ans: > 30 µM
